Target: acetylcholine receptor
Assay: SPR, AchR immobilized on chip, peptide at 10 uM
measurement label: Binding affinity

- RRRLKK [6mer-2-1]: 131 RU
- KQVQKR [6mer-2-25]: 148 RU
- KSLSRR [6mer-2-53]: 125 RU
- RWRYRK [6mer-2-39]: 137 RU
- KLICRK [6mer-2-9]: 139 RU
- KLYLKR [6mer-2-46]: 153 RU
- RSILRR [6mer-2-18]: 124 RU
- KRQRKK [6mer-2-52]: 136 RU

The measurements presented in this section are drawn from patent US20250011363A1.
